Each recorded value in this set is attributed to patent US20160318933A1.

Tested on: human brain-derived dopamine D4 receptor (Homo sapiens)
Construct: expressed in transfected cells; host or cells: CHO (CHO-K1) or HEK293 cells
Sequence (P21917 whole entry): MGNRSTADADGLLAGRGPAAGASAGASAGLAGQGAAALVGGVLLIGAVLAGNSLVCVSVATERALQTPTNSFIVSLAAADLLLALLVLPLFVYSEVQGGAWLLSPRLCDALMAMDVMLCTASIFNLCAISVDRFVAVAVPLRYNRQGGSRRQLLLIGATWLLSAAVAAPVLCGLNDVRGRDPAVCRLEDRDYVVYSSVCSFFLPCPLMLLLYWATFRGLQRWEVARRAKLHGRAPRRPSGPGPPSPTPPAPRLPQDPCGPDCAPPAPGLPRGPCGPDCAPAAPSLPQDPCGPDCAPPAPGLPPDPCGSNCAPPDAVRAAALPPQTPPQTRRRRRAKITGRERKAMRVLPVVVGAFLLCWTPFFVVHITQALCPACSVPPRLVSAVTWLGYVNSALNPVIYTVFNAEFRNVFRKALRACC
Measurement description: Agonistic activity in G protein dependent pathway of dopamine D4 receptor (aequorin intracellular calcium luminescence, FDSS)
Type: cell-based
Condition summary: read-out: Maximal activity on D4 receptor (%)
Classify by measured Emax: 1 (yes) if it is equal to or exceeds 60%, 0 (no) if it is smaller.

{"columns": ["Molecule", "Tested on", "Assigned class"],
 "data": [
  ["COc1ccccc1-c1cc2n(n1)CCN(Cc1ccc(C)nc1N)C2 [Example 16]", "human brain-derived dopamine D4 receptor (Homo sapiens)", "0 (no)"],
  ["Cc1ccc(CN2CCn3nc(-c4ncccn4)cc3C2)cc1 [Example 176]", "human brain-derived dopamine D4 receptor (Homo sapiens)", "0 (no)"],
  ["Cc1ccc(CN2CCn3nc(-c4ncccc4F)c(C)c3C2)cc1 [Example 82]", "human brain-derived dopamine D4 receptor (Homo sapiens)", "1 (yes)"]
]}

Query :: Reported Emax at or above 60%? Cc1cccnc1-c1nn2c(c1C)CN(Cc1ccccc1)CC2 [Example 73]
Result :: 0 (no)

Query :: # check: Emax of Cc1cccnc1-c1cc2n(n1)CCN(Cc1ccc3c(c1)N(C)C(=O)CS3)C2 [Example 77] is greater than or equal to 60%
Result :: 1 (yes)

Query :: Is Emax at least 60%? Consider Cc1cccc(CN2CCn3nc(-c4ncccc4C)cc3C2)n1 [Example 156]
Result :: 1 (yes)

Query :: Kindly determine if Emax recorded for Cc1c(-c2ccccn2)nn2c1CN(Cc1cn3c(n1)CCCC3)CC2 [Example 94] is above or exactly 60%.
Result :: 0 (no)

Query :: Kindly determine if Emax recorded for Cc1cccnc1-c1cc2n(n1)CCN(Cc1cnn3ccccc13)C2 [Example 89] is above or exactly 60%.
Result :: 0 (no)
